- Read-out: CD40, CD40 (gene 958)
- assayInfo: BSK_LPS_CD40: BioMAP Diversity Plus: LPS Assay for CD40 Biomarker Activity (AID 2283076)
- testContext: primary human HUVEC with PBMC; actives raise or lower the signal
Active and inactive are the calls of the source. How the source made its calls: active means hit-call score of the fitted dose curve at least 0.9, where 1 is the maximum; inactive means score below 0.9.
metric: AC50

{"structureAsSmiles": "CCCN(CCC)N=O", "metric": "AC50", "result": "inactive"}
{"structureAsSmiles": "CCC(C)(CC)c1cc(NC(=O)c2c(OC)cccc2OC)on1", "metric": "AC50", "result": "inactive"}
{"structureAsSmiles": "Cc1cc2c3c(c1)C(c1ccccc1)=N[C@@H](NC(=O)c1ccncc1)C(=O)N3CC2", "metric": "AC50", "result": "3.97 µM (active)"}
{"structureAsSmiles": "ClC(Cl)=C(c1ccc(Cl)cc1)c1ccc(Cl)cc1", "metric": "AC50", "result": "29.8 µM (active)"}
{"structureAsSmiles": "Cc1ccccc1[N+](=O)[O-]", "metric": "AC50", "result": "inactive"}
{"structureAsSmiles": "CCCCCCCCCc1ccc(O)cc1", "metric": "AC50", "result": "22.6 µM (active)"}
{"structureAsSmiles": "CCCCCCCCOC(=O)c1ccccc1C(=O)OCCCCCCCC", "metric": "AC50", "result": "inactive"}
{"structureAsSmiles": "O=S(=O)(O)C(F)(F)C(F)(F)C(F)(F)C(F)(F)F", "metric": "AC50", "result": "inactive"}
{"structureAsSmiles": "Cc1cccc([N+](=O)[O-])c1", "metric": "AC50", "result": "inactive"}
{"structureAsSmiles": "COS(=O)(=O)OC", "metric": "AC50", "result": "inactive"}
{"structureAsSmiles": "Nc1ccc(-c2ccc(N)cc2)cc1", "metric": "AC50", "result": "inactive"}
{"structureAsSmiles": "CN(C)c1nc(=O)n(C2CCCCC2)c(=O)n1C", "metric": "AC50", "result": "inactive"}
{"structureAsSmiles": "CO/C=C(/C(=O)OC)c1ccccc1COc1cccc(C(F)(F)F)n1", "metric": "AC50", "result": "18.3 µM (active)"}
